# Measurement description: titration pKa (66% DMF/H2O)
# Condition parameters: pKa, 66% DMF
Recorded pKa for the following compounds
Reply: number alone, nothing else.

Query: Name the recorded pKa of the item S=C(NCCC1=CCCCC1)Nc1ccc(Cl)nn1 [Example 336] in your answer.
Result: 12.8

# next compound below
Query: Name the recorded pKa of the item Fc1cccc(F)c1CCNC(=S)Nc1ccc(Cl)nn1 [Example 337] in your answer.
Result: 12.7

----------
# Test system: HIV-2
# Measurement description: Test F (HIV-2 RT), RT activity in supernatant of infected MT-4/H9 cells
# Format: cell-based
# Condition parameters: Human immunodeficiency virus 2, H9, Test F; 0.1 µg/ml
Assign class 1 to entries whose inhibition at 0.1 µg/mL meets or exceeds 4%; assign class 0 to the rest.

Query: Dear colleague, could you confirm whether N#Cc1csc(NC(=S)NCCc2ccccc2)n1 has inhibition at 0.1 µg/mL at or above 4%?
Result: class 1
